molecular target: Gal(a1-4)Gal(b1-4)GlcNAc(b1-3)Gal(b1-4)Glc; test: glycan array binding signal (z-score within array); higher = stronger binding; settings: glycan notation: IUPAC condensed, linker removed
Shown is part of a subset that was picked to be rich in the strongest signals.
Please note: yes (1) applies when glycan array binding signal (z-score) is -0.2 or greater, and no (0) applies otherwise.

INSERT INTO measurements (binder, qualitative_label) VALUES
  ('DCL-1 (Homo sapiens), Q8IX05 (protein) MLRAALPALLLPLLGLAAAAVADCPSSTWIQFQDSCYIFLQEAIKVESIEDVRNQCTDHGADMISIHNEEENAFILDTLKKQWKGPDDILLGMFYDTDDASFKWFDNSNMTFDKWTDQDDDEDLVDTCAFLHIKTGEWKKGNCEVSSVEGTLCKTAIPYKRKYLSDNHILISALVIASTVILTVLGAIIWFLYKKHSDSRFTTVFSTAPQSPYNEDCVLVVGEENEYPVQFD', 'no (0)'),
  ('Ficolin B (Rattus norvegicus), P57756 (protein) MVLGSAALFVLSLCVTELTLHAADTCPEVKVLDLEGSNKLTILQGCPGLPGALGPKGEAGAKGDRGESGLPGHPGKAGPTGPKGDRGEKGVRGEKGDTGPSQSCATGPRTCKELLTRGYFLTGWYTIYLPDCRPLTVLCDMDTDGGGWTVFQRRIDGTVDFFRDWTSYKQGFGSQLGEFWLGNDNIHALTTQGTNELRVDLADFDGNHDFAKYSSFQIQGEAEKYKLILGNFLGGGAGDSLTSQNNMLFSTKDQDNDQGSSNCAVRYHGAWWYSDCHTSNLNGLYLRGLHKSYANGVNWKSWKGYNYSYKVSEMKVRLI', 'yes (1)'),
  ('Gal 2 (Homo sapiens), P05162 (protein) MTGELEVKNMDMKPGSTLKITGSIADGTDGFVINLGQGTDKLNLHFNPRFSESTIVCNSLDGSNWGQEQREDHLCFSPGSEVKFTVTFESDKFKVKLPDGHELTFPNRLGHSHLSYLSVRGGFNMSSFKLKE', 'no (0)'),
  ('DC-ASGPR Long (Homo sapiens) (protein) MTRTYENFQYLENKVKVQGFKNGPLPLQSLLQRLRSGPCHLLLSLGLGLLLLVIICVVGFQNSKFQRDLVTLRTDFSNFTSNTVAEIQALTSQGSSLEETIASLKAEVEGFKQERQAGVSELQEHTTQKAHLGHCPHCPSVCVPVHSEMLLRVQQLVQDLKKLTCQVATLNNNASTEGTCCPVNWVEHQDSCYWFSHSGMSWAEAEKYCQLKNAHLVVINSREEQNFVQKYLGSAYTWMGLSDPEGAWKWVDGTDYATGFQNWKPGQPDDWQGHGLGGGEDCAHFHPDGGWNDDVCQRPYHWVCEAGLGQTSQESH', 'no (0)'),
  ('Gal 10 (Homo sapiens), Q05315 (protein) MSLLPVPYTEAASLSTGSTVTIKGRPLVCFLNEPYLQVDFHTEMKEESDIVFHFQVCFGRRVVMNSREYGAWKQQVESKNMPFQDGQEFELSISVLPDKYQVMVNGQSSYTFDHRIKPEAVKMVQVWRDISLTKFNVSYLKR', 'yes (1)'),
  ('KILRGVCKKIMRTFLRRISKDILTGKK [NK2 (Sus scrofa)]', 'yes (1)');
